Test system: DU-145
Assay: Cell growth inhibition assay, prostate cancer cell line DU-145
Assay type: cell-based
Details: Homo sapiens, DU-145 prostate cancer cell line
quantity.measured: log10 of IC50 (log10 of the value in µM)

>>> print(df.to_string())
                                   compound  target_or_test_system  obs_value
0  CN(c1cc2cc(C(=O)Nc3cc(Cl)cc(-c4ccc(F)cc4F)c3)sc2cc1F)S(C)(=O)=O [Example 329]                 DU-145      -2.40
1  CN(c1cc(Cl)cc(NC(=O)c2cc3cc(NS(C)(=O)=O)c(Cl)cc3s2)c1)c1ccc(F)cc1F [Example 442]                 DU-145      -1.89
2  COc1cc(Cl)cc(Oc2cc(Cl)cc(NC(=O)c3cc4cc(NS(C)(=O)=O)c(Cl)cc4s3)c2)c1 [Example 474]                 DU-145      -1.66
3  Cn1nccc1-c1ccc(C(C)(C)c2cc(Cl)cc(NC(=O)c3cc4cc(NS(C)(=O)=O)ccc4s3)c2)cc1 [Example 159]                 DU-145      -0.85
4  CC(C)Oc1cc(CN2CCOCC2)cc(C(C)(C)c2cc(F)cc(NC(=O)c3cc4cc(NS(C)(=O)=O)ccc4s3)c2)c1 [Example 137]                 DU-145      -1.00
5  CC(C)Oc1cc(OC(F)(F)F)cc(C(C)(C)c2cc(F)cc(NC(=O)c3cc4cc(NS(C)(=O)=O)ccc4s3)c2)c1 [Example 82]                 DU-145      -2.10
6  Cn1cccc1C(C)(C)c1cc(Cl)cc(NC(=O)c2cc3cc(NS(C)(=O)=O)ccc3s2)c1 [Example 169]                 DU-145      -1.68
7  CC(C)Oc1cc(CN2CCN(c3noc(C(C)C)n3)CC2)cc(C(C)(C)c2cc(Cl)cc(NC(=O)c3cc4cc(NS(C)(=O)=O)ccc4s3)c2)c1 [Example 129]                 DU-145      -1.22
